Reported protein stability index by item:
B1: CDC25B (parent)
chain: FVDILESDLKDDDAVPPGMESLIS

# Variants of: B1
# Assay Procedure: protein stability index of a GFP-peptide fusion (GPS, HEK-293T) (PSI 1-6); higher = more stable;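 note: lentivirally expressed fusions sorted by FACS into six bins by GFP to DsRed ratio, PSI derived from sequencing read proportions per bin multiplied by bin number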
# Stated Conditions: c terminus: a fixed tail appended

Residue String: FVDILESDLKDDDAVPLGMESLIS [P17L]
protein stability index: 2.43
//
Residue String: FVDILNSDLKDDDAVPPGMESLIS [E6N]
protein stability index: 3.13
//
Residue String: FVDILESDLKDDDAVPPGMEVLIS [S21V]
protein stability index: 2.93
//
Residue String: FVDILESDLKDDDAVPPGYESLIS [M19Y]
protein stability index: 2.32
//
Residue String: FVDILESDLQDDDAVPPGMESLIS [K10Q]
protein stability index: 2.97
//
Residue String: FVDELESDLKDDDAVPPGMESLIS [I4E]
protein stability index: 4.52
//
Residue String: FVDILESDIKDDDAVPPGMESLIS [L9I]
protein stability index: 3.05
//
Residue String: FVDILESGLKDDDAVPPGMESLIS [D8G]
protein stability index: 2.93
//
Residue String: FVDILECDLKDDDAVPPGMESLIS [S7C]
protein stability index: 3.23
//
Residue String: FVDILESDLKDDDAVPPGMESLMS [I23M]
protein stability index: 3.02
//
Residue String: FVDILESDLKDDDFVPPGMESLIS [A14F]
protein stability index: 2.49
//
Residue String: FTDILESDLKDDDAVPPGMESLIS [V2T]
protein stability index: 4.43
//
Residue String: FVDIYESDLKDDDAVPPGMESLIS [L5Y]
protein stability index: 2.8
//
Residue String: FVDILESDLKWDDAVPPGMESLIS [D11W]
protein stability index: 1.8
//
Residue String: FVDILGSDLKDDDAVPPGMESLIS [E6G]
protein stability index: 2.31
//
Residue String: FVDILESDLKDDDANPPGMESLIS [V15N]
protein stability index: 3.27
//
Residue String: MVDILESDLKDDDAVPPGMESLIS [F1M]
protein stability index: 4.59
//
Residue String: FVDILESMLKDDDAVPPGMESLIS [D8M]
protein stability index: 2.55
//
Residue String: FPDILESDLKDDDAVPPGMESLIS [V2P]
protein stability index: 4.8
//
Residue String: FVDILESDLKDDDAVPPGMPSLIS [E20P]
protein stability index: 2.44
//
Residue String: FVDILESDLCDDDAVPPGMESLIS [K10C]
protein stability index: 3.11
//
Residue String: FVDILESDQKDDDAVPPGMESLIS [L9Q]
protein stability index: 3.18
//
Residue String: FVDILESDLKDDDAVPPGMESLSS [I23S]
protein stability index: 3.3
//
Residue String: FVDILESDLKQDDAVPPGMESLIS [D11Q]
protein stability index: 2.51
//
Residue String: FVDILESDLKDDDAVPPGMWSLIS [E20W]
protein stability index: 1.78
//
Residue String: FVHILESDLKDDDAVPPGMESLIS [D3H]
protein stability index: 2.91
//
Residue String: FVDILESDLKDDDAVQPGMESLIS [P16Q]
protein stability index: 2.79
//
Residue String: FVDILESDLKDDDAVPPGMESLYS [I23Y]
protein stability index: 2.69
//
Residue String: FVDILESDLKDDDAVPPGMESLIC [S24C]
protein stability index: 2.66
//
Residue String: FVMILESDLKDDDAVPPGMESLIS [D3M]
protein stability index: 1.92
//
Residue String: FVDILESDLKKDDAVPPGMESLIS [D11K]
protein stability index: 3.02
//
Residue String: FVDILESDLKDDDARPPGMESLIS [V15R]
protein stability index: 2.69
//
Residue String: FVDILESDLKDDDAVPQGMESLIS [P17Q]
protein stability index: 3.2
//
Residue String: FVLILESDLKDDDAVPPGMESLIS [D3L]
protein stability index: 1.93
//
Residue String: FVDILESDLKDDDAVPPGMESLQS [I23Q]
protein stability index: 3.77
//
Residue String: FVDILESDEKDDDAVPPGMESLIS [L9E]
protein stability index: 3.39
//
Residue String: FVDPLESDLKDDDAVPPGMESLIS [I4P]
protein stability index: 4.03
//
Residue String: FVDILESDDKDDDAVPPGMESLIS [L9D]
protein stability index: 3.21
//
Residue String: FVRILESDLKDDDAVPPGMESLIS [D3R]
protein stability index: 2.12
//
Residue String: FVDILEWDLKDDDAVPPGMESLIS [S7W]
protein stability index: 1.36
//
Residue String: FVDILESDLKDVDAVPPGMESLIS [D12V]
protein stability index: 2.56
//
Residue String: FVDIMESDLKDDDAVPPGMESLIS [L5M]
protein stability index: 3.57
//
Residue String: FVDILPSDLKDDDAVPPGMESLIS [E6P]
protein stability index: 2.37
//
Residue String: FVDILEYDLKDDDAVPPGMESLIS [S7Y]
protein stability index: 2.77
//
Residue String: FVDILESDLDDDDAVPPGMESLIS [K10D]
protein stability index: 2.91
//
Residue String: FVDILESDLKDDDAVPHGMESLIS [P17H]
protein stability index: 2.61
//
Residue String: FVDILESDLKDDDAIPPGMESLIS [V15I]
protein stability index: 3
//
Residue String: FVDILESDTKDDDAVPPGMESLIS [L9T]
protein stability index: 3.23
//
Residue String: FVDILESDLKDDDAVPPGMMSLIS [E20M]
protein stability index: 2.16
//
Residue String: FVDIFESDLKDDDAVPPGMESLIS [L5F]
protein stability index: 2.35
//
Residue String: FVDILESQLKDDDAVPPGMESLIS [D8Q]
protein stability index: 2.67
//
Residue String: FVDILESDLKDDDAGPPGMESLIS [V15G]
protein stability index: 3.19
//
Residue String: FVDILESDLKDDDAVPPGMESLIP [S24P]
protein stability index: 2.57
//
Residue String: FVFILESDLKDDDAVPPGMESLIS [D3F]
protein stability index: 1.6
//
Residue String: FVDILESDLVDDDAVPPGMESLIS [K10V]
protein stability index: 3
//
Residue String: FVDILESDLKDDDAVPPGMEGLIS [S21G]
protein stability index: 2.61
//
Residue String: FVDILESDLKDDDAVPPGQESLIS [M19Q]
protein stability index: 3.6
//
Residue String: FVDIPESDLKDDDAVPPGMESLIS [L5P]
protein stability index: 3.75
//
Residue String: FVDILESDLKDDDYVPPGMESLIS [A14Y]
protein stability index: 2.49
//
Residue String: FVDILESDLKDDDAVPPGMESIIS [L22I]
protein stability index: 2.77
//
Residue String: FVDILESDLKDDDAVPFGMESLIS [P17F]
protein stability index: 2.21
//
Residue String: FVDILESDLKDQDAVPPGMESLIS [D12Q]
protein stability index: 2.62
//
Residue String: FVDILESDLKLDDAVPPGMESLIS [D11L]
protein stability index: 2.25
//
Residue String: FVDILEGDLKDDDAVPPGMESLIS [S7G]
protein stability index: 3.22
//
Residue String: FVDILESDLKEDDAVPPGMESLIS [D11E]
protein stability index: 3.17
//
Residue String: FVDILESDLKDDDAVPPGMETLIS [S21T]
protein stability index: 2.76
//
Residue String: FVDIKESDLKDDDAVPPGMESLIS [L5K]
protein stability index: 3.63
//
Residue String: FIDILESDLKDDDAVPPGMESLIS [V2I]
protein stability index: 3.8
//
Residue String: FVDILESDLKDDDAVPPKMESLIS [G18K]
protein stability index: 2.8
//
Residue String: FVDILESDLKDDDAVPPQMESLIS [G18Q]
protein stability index: 2.86
//
Residue String: FVDILESDLKDGDAVPPGMESLIS [D12G]
protein stability index: 3.01
//
Residue String: FVDILEHDLKDDDAVPPGMESLIS [S7H]
protein stability index: 2.6
//
Residue String: FVDILESDLKDDDAVPPGMESLES [I23E]
protein stability index: 3.57
//
Residue String: FVDILESDLKDDNAVPPGMESLIS [D13N]
protein stability index: 2.67
//
Residue String: FVDILESDLKDDDAVPPGEESLIS [M19E]
protein stability index: 3.37
//
Residue String: FVDILESDLKDDDAVPPGMLSLIS [E20L]
protein stability index: 2.2
//
Residue String: FVDILESDSKDDDAVPPGMESLIS [L9S]
protein stability index: 3.36
//
Residue String: FVDILESDLKDDRAVPPGMESLIS [D13R]
protein stability index: 2.1
//
Residue String: FVDILESDLKDDDAVPPGKESLIS [M19K]
protein stability index: 3.02
